Origin of the recorded values: ChEMBL document CHEMBL1136954

- test name: Half life in rat at 10 mg/kg, iv
- Assay type: ADME, organism-based
- Set-up: dose 10 mg/kg, route intravenous
- conditions: in vivo

{"molecule": "CC(C)(C)[C@H](NC(=O)NC1(C(=O)OCc2ccccc2)CCCCC1)C(=O)N1C[C@H]2[C@@H]([C@H]1C(=O)NC(CC1CC1)C(=O)C(N)=O)C2(C)C (mixture of isomers)", "half-life": "2.9 h"}

* * *

- test name: AUC (0 to 6 hrs) in rat at 10 mg/kg, po
- Assay type: ADME, organism-based
- Set-up: time < 6 hr, dose 10 mg/kg, route oral
- conditions: plasma
Kindly apply the following: Met if AUC(0-t) at 6 h is less than 1 µM·h, Not met in every other case.

{"compound": "CC(C)[C@H](NC(=O)N[C@H](C(=O)N1C[C@H]2[C@@H]([C@H]1C(=O)NC(CC1CC1)C(=O)C(N)=O)C2(C)C)C(C)(C)C)C(=O)C1CC1 (mixture of isomers)", "classification": "Met"}
{"compound": "C#CCCC(NC(=O)[C@@H]1[C@@H]2[C@H](CN1C(=O)[C@@H](NC(=O)N[C@H](C(=O)C1CC1)C1CCCCC1)C(C)(C)C)C2(C)C)C(=O)C(=O)NC1CC1 (mixture of isomers)", "classification": "Not met"}
{"compound": "C=CCNC(=O)C(=O)C(CCC)NC(=O)[C@@H]1[C@@H]2[C@H](CN1C(=O)[C@@H](NC(=O)N[C@H](C(=O)C1CC1)C(C)C)C(C)(C)C)C2(C)C (mixture of isomers)", "classification": "Not met"}
{"compound": "CC(C)(C)[C@H](NC(=O)N[C@H](C(=O)c1ccccn1)C1CCCCC1)C(=O)N1C[C@H]2[C@@H]([C@H]1C(=O)NC(CC1CC1)C(=O)C(N)=O)C2(C)C (mixture of isomers)", "classification": "Not met"}
{"compound": "C#CCCC(NC(=O)[C@@H]1[C@@H]2[C@H](CN1C(=O)[C@@H](NC(=O)N[C@H](C(=O)C1CC1)C(C)C)C(C)(C)C)C2(C)C)C(=O)C(=O)NC1CC1 (mixture of isomers)", "classification": "Not met"}
{"compound": "CC(C)[C@H](NC(=O)N[C@H](C(=O)N1C[C@H]2[C@@H]([C@H]1C(=O)NC(CC1CC1)C(=O)C(N)=O)C2(C)C)C(C)(C)C)C(=O)c1nccs1 (mixture of isomers)", "classification": "Met"}
{"compound": "CC(C)[C@H](NC(=O)N[C@H](C(=O)N1C[C@H]2[C@@H]([C@H]1C(=O)NC(CC1CC1)C(=O)C(N)=O)C2(C)C)C(C)(C)C)C(=O)c1ccccn1 (mixture of isomers)", "classification": "Met"}
{"compound": "C=CCNC(=O)C(=O)C(CCC)NC(=O)[C@@H]1[C@@H]2[C@H](CN1C(=O)[C@@H](NC(=O)N[C@H](C(=O)C1CC1)C1CCCCC1)C(C)(C)C)C2(C)C (mixture of isomers)", "classification": "Not met"}
{"compound": "C#CCCC(NC(=O)[C@@H]1[C@@H]2[C@H](CN1C(=O)[C@@H](NC(=O)N[C@H](C(=O)C1CC1)C1CCCCC1)C(C)(C)C)C2(C)C)C(=O)C(=O)NCC=C (mixture of isomers)", "classification": "Not met"}
{"compound": "CC(C)(C)NC(=O)N[C@H](C(=O)N1C[C@H]2[C@@H]([C@H]1C(=O)NC(CC1CCC1)C(=O)C(N)=O)C2(C)C)C(C)(C)C (stereo partly specified)", "classification": "Met"}
{"compound": "CC(C)(C)[C@H](NC(=O)N[C@H](C(=O)C1CC1)C1CCCCC1)C(=O)N1C[C@H]2[C@@H]([C@H]1C(=O)NC(CC1CC1)C(=O)C(N)=O)C2(C)C (mixture of isomers)", "classification": "Not met"}
